Test system: HCT-15
Lab note: compare GI50 with 20 µM, writing 1 if less and -1 if equal or more.

Check out these entries, answers already filled in.
Compound | Label
O=C(Nc1ccccc1SC(/C=C/NNC1=NN=C(c2ccccc2)C(c2ccccc2)N1)c1ccccc1)c1ccc(Cl)cc1Cl (stereo not given) | -1
CCOC(=O)C(Cl)(NC(=O)c1c(F)c(F)c(F)c(F)c1F)C(F)(F)F (stereo not given) | -1
CCOC(=O)C(SCCO)C(C(=O)OCC)n1ccc(=O)[nH]c1=O (stereo not given) | 1
O=C1c2ccccc2C(=O)N1CCN(CCN1C(=O)c2ccccc2C1=O)Cn1cccn1 | -1
O=C1[C@@H]2[C@@H](CN3CN(c4ccccc4)N=C(c4ccccc4)[C@@]23c2ccccc2)C(=O)N1c1ccccc1 | 1

Please find the next compound below.
Threshold test, GI50 < 20 µM: C/C(=N\N=C(/S)N1CCCCCC1)c1cccc[n+]1[O-]
1
